tested on: YT; assay: cells; type: functional, cell-based; settings: Homo sapiens;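 note: growth inhibition of YT cells, measured with a cell viability assay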
Description: SANGER: Inhibition of human YT cell growth in a cell viability assay.
quantity.measured: IC50 (nM)

>  <molecule>
O=c1[nH]c2ccccc2n1C1CCN(Cc2ccc(-c3nc4cc5[nH]cnc5cc4nc3-c3ccccc3)cc2)CC1

>  <quantity.measured>
IC50

>  <qualifying.sign>
>

>  <test.value>
2560

$$$$
>  <molecule>
C/C=C(/C)C(=O)O[C@H]1C(C)=C2[C@H]([C@@H]1OC(=O)CCCCCCC)[C@@](C)(OC(C)=O)C[C@H](OC(=O)CCC)[C@@]1(O)[C@H]2OC(=O)[C@@]1(C)O [THAPSIGARGIN]

>  <quantity.measured>
IC50

>  <qualifying.sign>
=

>  <test.value>
13.1

$$$$
>  <molecule>
Cc1[nH]c(/C=C2\C(=O)Nc3ccc(S(=O)(=O)Cc4c(Cl)cccc4Cl)cc32)c(C)c1C(=O)N1CCC[C@@H]1CN1CCCC1 [PHA-665752]

>  <quantity.measured>
IC50

>  <qualifying.sign>
>

>  <test.value>
2000

$$$$
>  <molecule>
CO[C@@]12[C@H](COC(N)=O)C3=C(C(=O)C(C)=C(N)C3=O)N1C[C@@H]1N[C@@H]12 [MITOMYCIN]

>  <quantity.measured>
IC50

>  <qualifying.sign>
=

>  <test.value>
463

$$$$
>  <molecule>
CCn1c(-c2nonc2N)nc2cnc(Oc3cccc(NC(=O)c4ccc(OCCN5CCOCC5)cc4)c3)cc21 [GSK-269962A]

>  <quantity.measured>
IC50

>  <qualifying.sign>
>

>  <test.value>
2500

$$$$
